Hello, the source for this data is patent US11214803B2, in case you need it.

- System: Yap1 mRNA
- test_description: Antisense inhibition of human Yap1 in SNU-449 cells by modified oligonucleotides, single dose (Example 5, RTS36584)
- Type: cell-based
- measurement_setup: Table 41; SNU-449 cells, 10,000 cells per well, free uptake, 2,000 nM modified oligonucleotide, approximately 48 hours; RTS36584; normalized to RIBOGREEN; Yap1 mRNA relative to untreated control cells
- Method: Modified oligonucleotides with additional chemistry modifications were designed to target a Yap1 nucleic acid and were tested for their effect on Yap1 mRNA level in SNU-449 cells. […] After a treatment period of approximately 48 hours, RNA was isolated from the cells and Yap1 mRNA levels were measured by quantitative real-time RTPCR. […] Yap1 mRNA levels were normalized to total RNA content, as measured by RIBOGREEN®. […]
Strand notation (5' to 3'): a small letter for the sugar, then the base; units joined by * are phosphorothioate-linked, units joined directly phosphodiester-linked; [ ] holds rarer units or linkages, { } end groups; capitals alone tell only the bases. e = 2'-O-(2-methoxyethyl) (MOE); k = constrained ethyl (cEt); [5mC] = 5-methylcytosine; d = 2'-deoxy (DNA)

{"substance": "1198692 (antisense kT*kG*dT*dA*dA*dT*dA*dT*dT*dG*d[5mC]*dA*kA*eT*k[5mC]*eT) [Compound 1198692]", "YAP1 (% UTC)": 120}
{"substance": "1198776 (kG*eA*k[5mC]*dA*dA*d[5mC]*dT*d[5mC]*dT*dT*dA*dT*eA*eT*kG*kG) [Compound 1198776]", "YAP1 (% UTC)": 57}
{"substance": "1198653 (k[5mC]*kT*dT*dT*dT*dA*d[5mC]*dA*dT*dT*dA*dG*kG*eA*kA*e[5mC]; antisense) [Compound 1198653]", "YAP1 (% UTC)": 64}
{"substance": "1198655 (k[5mC]*kA*d[5mC]*dT*dT*dT*dT*dA*d[5mC]*dA*dT*dT*kA*eG*kG*eA; antisense) [Compound 1198655]", "YAP1 (% UTC)": 30}
{"substance": "1198736 (kT*eG*kA*dG*dG*dT*dA*dT*dA*dA*d[5mC]*dT*eG*eG*kG*k[5mC]; antisense) [Compound 1198736]", "YAP1 (% UTC)": 20}
{"substance": "1198633 (kG*kG*dA*dA*dA*dT*dT*dG*dT*d[5mC]*dT*d[5mC]*kA*eT*kG*e[5mC]; antisense) [Compound 1198633]", "YAP1 (% UTC)": 46}

----------
Some substances, each annotated with its measured YAP1 (% UTC).
- Tested on: Yap1 mRNA
- test_description: Antisense inhibition of human Yap1 in A-431 cells by cEt gapmers, single dose (Example 2, RTS4814)
- Type: cell-based
- measurement_setup: Table 18; A-431 cells, 5,000 cells per well, free uptake, 2,000 nM modified oligonucleotide, approx. 48 hours; RTS4814; normalized to RIBOGREEN; Yap1 mRNA as percent of untreated control
Strand notation (5' to 3'): a small letter for the sugar, then the base; units joined by * are phosphorothioate-linked, units joined directly phosphodiester-linked; [ ] holds rarer units or linkages, { } end groups; capitals alone tell only the bases. k = constrained ethyl (cEt); [5mC] = 5-methylcytosine; d = 2'-deoxy (DNA)

{"substance": "1075908 (kA*kA*kT*dA*dA*dG*dG*dA*dG*dT*dA*dG*dG*kT*kG*kG; antisense) [Compound 1075908]", "YAP1 (% UTC)": 50}
{"substance": "1076292 (kT*kA*kT*dT*dA*dT*dT*dG*dA*dG*dT*dT*dA*kT*k[5mC]*k[5mC]; antisense) [Compound 1076292]", "YAP1 (% UTC)": 27}
{"substance": "1076068 (k[5mC]*kT*kA*dA*dA*dA*dT*dG*dA*d[5mC]*d[5mC]*dT*dT*kA*kG*k[5mC]; antisense) [Compound 1076068]", "YAP1 (% UTC)": 73}
{"substance": "1075780 (kT*kA*kT*dA*dA*dT*dA*dA*dT*d[5mC]*d[5mC]*dA*dG*kA*kA*k[5mC]; antisense) [Compound 1075780]", "YAP1 (% UTC)": 98}
{"substance": "1074660 (antisense kA*kA*kT*dT*dT*d[5mC]*dA*dT*dT*dA*d[5mC]*dT*dA*k[5mC]*kT*k[5mC]) [Compound 1074660]", "YAP1 (% UTC)": 48}
{"substance": "1074116 (antisense kG*kA*kG*dA*dA*d[5mC]*dT*dT*dT*dT*dT*d[5mC]*d[5mC]*k[5mC]*kT*k[5mC]) [Compound 1074116]", "YAP1 (% UTC)": 112}
{"substance": "1075332 (kA*kG*k[5mC]*dG*dG*dG*dT*dT*dT*dA*dG*dA*dA*kT*kG*k[5mC]; antisense) [Compound 1075332]", "YAP1 (% UTC)": 66}
{"substance": "1074340 (antisense kT*k[5mC]*k[5mC]*d[5mC]*dG*dG*dG*dA*dG*dA*dA*dG*dA*k[5mC]*kA*k[5mC]) [Compound 1074340]", "YAP1 (% UTC)": 120}
{"substance": "1075844 (kT*kA*kT*dT*dA*dA*dA*dT*dA*dA*dG*dA*dG*k[5mC]*kT*k[5mC]; antisense) [Compound 1075844]", "YAP1 (% UTC)": 84}
{"substance": "1076228 (kA*kT*kT*dA*dA*d[5mC]*d[5mC]*dT*d[5mC]*dA*dG*dT*dG*kA*kG*k[5mC]; antisense) [Compound 1076228]", "YAP1 (% UTC)": 69}
{"substance": "1075364 (k[5mC]*kG*kA*dA*dA*dA*dT*dA*dG*dT*dT*d[5mC]*dT*k[5mC]*kA*kA; antisense) [Compound 1075364]", "YAP1 (% UTC)": 59}
{"substance": "1074564 (antisense k[5mC]*kT*kG*dA*dA*dT*dT*d[5mC]*d[5mC]*dA*dA*dT*d[5mC]*kG*kA*kG) [Compound 1074564]", "YAP1 (% UTC)": 4}
{"substance": "1075524 (kT*kA*kA*dT*dT*dA*dA*dG*dG*dG*d[5mC]*d[5mC]*d[5mC]*kA*k[5mC]*kA; antisense) [Compound 1075524]", "YAP1 (% UTC)": 71}
{"substance": "1075876 (kG*kT*kA*dT*dT*dT*dA*dT*dG*dA*dT*dG*dA*kT*kT*k[5mC]; antisense) [Compound 1075876]", "YAP1 (% UTC)": 6}
{"substance": "1075940 (kA*k[5mC]*kT*d[5mC]*dA*dA*d[5mC]*dA*dA*d[5mC]*d[5mC]*d[5mC]*d[5mC]*kA*kA*kG; antisense) [Compound 1075940]", "YAP1 (% UTC)": 54}
{"substance": "1075460 (antisense kA*kA*kT*dA*dA*d[5mC]*d[5mC]*dA*dA*dG*dG*dA*dT*kA*kG*kT) [Compound 1075460]", "YAP1 (% UTC)": 30}
{"substance": "1076004 (kT*kA*kA*dT*dT*dT*dA*dA*dT*dG*dG*d[5mC]*dT*kT*kG*k[5mC]; antisense) [Compound 1076004]", "YAP1 (% UTC)": 2}
{"substance": "1074468 (k[5mC]*k[5mC]*kA*d[5mC]*d[5mC]*dG*dA*d[5mC]*d[5mC]*d[5mC]*dT*dG*d[5mC]*k[5mC]*kA*kA; antisense) [Compound 1074468]", "YAP1 (% UTC)": 34}
{"substance": "1074148 (antisense kG*kT*kG*dG*dA*dG*dA*dA*dG*d[5mC]*dG*dG*d[5mC]*kG*kA*k[5mC]) [Compound 1074148]", "YAP1 (% UTC)": 66}
{"substance": "1075588 (kA*k[5mC]*kT*dT*dA*dT*dT*dA*dG*d[5mC]*dA*d[5mC]*d[5mC]*kT*kG*kG; antisense) [Compound 1075588]", "YAP1 (% UTC)": 27}
{"substance": "1076196 (kT*kA*kT*d[5mC]*dA*dA*dG*dG*dG*dA*dA*dT*dT*kA*kT*kT; antisense) [Compound 1076196]", "YAP1 (% UTC)": 113}
{"substance": "1075172 (antisense k[5mC]*kT*kT*dT*dA*d[5mC]*dA*dT*dG*dA*dA*d[5mC]*dT*kG*kA*kT) [Compound 1075172]", "YAP1 (% UTC)": 14}
{"substance": "1074404 (antisense kG*kG*k[5mC]*dT*dT*dA*dT*dG*dG*dA*dA*dA*dT*kT*kT*k[5mC]) [Compound 1074404]", "YAP1 (% UTC)": 16}
{"substance": "1074180 (antisense k[5mC]*k[5mC]*kG*dG*dG*dA*dT*d[5mC]*d[5mC]*dA*dT*dG*dG*k[5mC]*kT*kT) [Compound 1074180]", "YAP1 (% UTC)": 86}
